Consider the following molecules; for each one, report its % viability.
System: M. mycetomatis strain mm55
condition_context: primary screen, metabolic activity vs growth control; 96 h, 2 µM; inhibitor
Where a name gives a salt, the structure may show the parent alone. The campaign covered roughly 5,300 compounds. About 130 (2.5%) showed an effect of 50% or more. The list comes from a sample in which strong results are over-represented; it also holds close analogues and randomly drawn compounds.
Number first, unit second.

Observe how each entry below is paired with its result.
molecule	measurement_label	result
C=Cc1c(C)c2cc3nc(c(CC(=O)O)c4[nH]c(cc5nc(cc1[nH]2)C(C)=C5CC)c(C)c4C(=O)O)C(CCC(=O)O)C3C (centres unmarked)	% viability	49.9%
CSc1ccccc1Nc1nc(N2CCNCC2)nc2c(NCC3CC3)ncnc12.Cl [ONC0001097, khkin1 hydrochloride]	% viability	76.94%
c1ccc2c(c1)[I+]c1ccccc1-2	% viability	44.4%
COC(=O)c1cc(OC)c2c(c1-c1c(C(=O)OC)cc(OC)c3c1OCO3)OCO2 [ONC0003333, bifendate]	% viability	41.54%
Clc1cccc(Cl)c1N=C1NCCN1 [ONC0004193, clonidine hydrochloride]	% viability	96.49%
N[C@@H]1CON=C1O	% viability	88.4%
Fc1cc(F)c2c(c1)[C@H]1C=CC[C@H]1C(c1cccnc1)N2 (mixture of isomers) [ONC0005186, golgicide a]	% viability	78.39%
COC(=O)c1cc(OC)c2c(c1-c1c(CO)cc(OC)c3c1OCO3)OCO2	% viability	70.1%
O=C1c2ccccc2C(=O)c2ccccc21	% viability	73.56%
O=C(Nc1cccc(Cl)c1)c1ccccn1	% viability	68.57%

// for each molecule in input: emit % viability
1. OCCCNc1cc(-c2ccnc(Nc3cccc(Cl)c3)n2)ccn1
2. CN(C)[C@@H]1C(=O)C(C(N)=O)C(=O)[C@@]2(O)C(=O)C3C(=O)c4c(O)cccc4[C@@](C)(O)[C@H]3C[C@@H]12 (some centres unmarked) [ONC0000563, tetracycline hydrochloride]
3. CC(O)COC[C@H]1O[C@@H]2O[C@H]3[C@H](O)[C@@H](O)[C@@H](O[C@H]4[C@H](O)[C@@H](O)[C@@H](O[C@H]5[C@H](O)[C@@H](O)[C@@H](O[C@H]6[C@H](O)[C@@H](O)[C@@H](O[C@H]7[C@H](O)[C@@H](O)[C@@H](O[C@H]8[C@H](O)[C@@H](O)[C@@H](O[C@H]1[C@H](O)[C@H]2O)O[C@@H]8COCC(C)O)O[C@@H]7COCC(C)O)O[C@@H]6COCC(C)O)O[C@@H]5COCC(C)O)O[C@@H]4COCC(C)O)O[C@@H]3COCC(C)O (some centres unmarked) [ONC0003826, hydroxypropylbetacyclodextrin]

output:
1. 9.09%
2. 113.1%
3. 73.6%

input: I have this molecule here, C=CC1=C(C)c2cc3[nH]c(cc4nc(cc5[nH]c(cc1n2)c(C)c5CCC(=O)O)C(CCC(=O)O)=C4C)c(C)c3C=C , and I need its recorded % viability.
output: 98.29%
